# EXPERIMENTAL_SYSTEM: Carbonic anhydrase 9 (Homo sapiens, UniProt Q16790)
Binary call on Ki with cut-off 200 nM: strictly below means true, and equality or higher means false.

>>> group_label("Cc1cccc(CN2C(=O)c3ccccc3S2(=O)=O)c1")
"true"
>>> group_label("CC1=CC(=O)N(Cc2ccc([N+](=O)[O-])cc2)S(=O)(=O)O1")
"false"
>>> group_label("CC1=CC(OCC(=O)c2ccc(Cl)cc2Cl)=NS(=O)(=O)O1")
"false"
>>> group_label("O=C1NCc2ccccc21")
"true"
>>> group_label("Cc1ccc(CN2C(=O)c3ccccc3S2(=O)=O)cc1")
"false"
>>> group_label("O=C1c2ccccc2S(=O)(=O)N1Cc1ccc(C(F)(F)F)cc1")
"true"
>>> group_label("O=C1c2ccccc2S(=O)(=O)N1Cc1cccc(C(F)(F)F)c1")
"true"

---

# EXPERIMENTAL_SYSTEM: Carbonic anhydrase 12 (Homo sapiens, UniProt O43570)
# Sequence (O43570 whole entry): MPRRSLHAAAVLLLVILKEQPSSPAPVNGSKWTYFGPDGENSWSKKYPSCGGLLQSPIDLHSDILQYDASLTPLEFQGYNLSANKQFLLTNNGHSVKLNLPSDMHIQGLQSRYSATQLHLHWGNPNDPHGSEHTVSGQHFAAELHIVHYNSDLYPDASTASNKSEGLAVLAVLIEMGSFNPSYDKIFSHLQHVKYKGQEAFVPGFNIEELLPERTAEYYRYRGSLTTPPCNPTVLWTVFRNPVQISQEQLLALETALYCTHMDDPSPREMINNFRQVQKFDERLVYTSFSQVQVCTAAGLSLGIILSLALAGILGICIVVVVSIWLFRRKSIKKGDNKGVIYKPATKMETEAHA
# PROCEDURE_SUMMARY: Inhibition of human recombinant carbonic anhydrase 12 preincubated for 15 mins by stopped flow CO2 hydration assay
ENDPOINT: Ki (nM)

>>> meas_value("CC1=CC(=O)N(CC(=O)c2ccc([N+](=O)[O-])cc2)S(=O)(=O)O1")
3.9
>>> meas_value("O=C1c2ccccc2S(=O)(=O)N1Cc1ccc(F)cc1")
41
>>> meas_value("O=C1c2ccccc2S(=O)(=O)N1Cc1ccccc1C(F)(F)F")
15
>>> meas_value("O=C1c2ccccc2S(=O)(=O)N1Cc1ccc(C(F)(F)F)cc1")
4.7
>>> meas_value("O=C(O)CN1C(=O)c2ccccc2C1=O")
4.3
>>> meas_value("CC1=CC(=O)N(Cc2ccc(F)cc2)S(=O)(=O)O1")
4.9
>>> meas_value("CC1=CC(OCC(=O)c2ccc(Br)cc2)=NS(=O)(=O)O1")
3.6
>>> meas_value("Cc1ccc(CN2C(=O)c3ccccc3S2(=O)=O)cc1")
5.1
>>> meas_value("COc1cccc(C(=O)CN2C(=O)c3ccccc3S2(=O)=O)c1")
6
>>> meas_value("COc1cccc(C(=O)CN2C(=O)C=C(C)OS2(=O)=O)c1")
5.6
>>> meas_value("CC1=CC(=O)N(Cc2ccc([N+](=O)[O-])cc2)S(=O)(=O)O1")
4.3
>>> meas_value("O=C1c2ccccc2S(=O)(=O)N1Cc1ccc([N+](=O)[O-])cc1")
29
>>> meas_value("Cc1ccccc1CN1C(=O)c2ccccc2S1(=O)=O")
16
>>> meas_value("CC1=CC(=O)N(Cc2ccc(Cl)cc2)S(=O)(=O)O1")
4.5
>>> meas_value("CC1=CC(=O)N(CC(=O)c2ccc(-c3ccccc3)cc2)S(=O)(=O)O1")
4
>>> meas_value("O=C1c2ccccc2S(=O)(=O)N1Sc1ccccc1[N+](=O)[O-]")
4
>>> meas_value("O=C(CN1C(=O)c2ccccc2S1(=O)=O)c1ccc(Cl)cc1Cl")
3.9
>>> meas_value("O=C1c2ccccc2S(=O)(=O)N1Cc1cccc(C(F)(F)F)c1")
17
>>> meas_value("CC1=CC(OCC(=O)c2ccc(Cl)cc2Cl)=NS(=O)(=O)O1")
5.5
>>> meas_value("Cc1cccc(CN2C(=O)c3ccccc3S2(=O)=O)c1")
26
>>> meas_value("O=C1c2ccccc2S(=O)(=O)N1Cc1ccc(Cl)cc1")
4.4
>>> meas_value("CC1=CC(=O)N(CC(=O)c2ccc(C#N)cc2)S(=O)(=O)O1")
4.1
>>> meas_value("O=C(CN1C(=O)c2ccccc2S1(=O)=O)c1ccc(F)cc1")
41
>>> meas_value("O=C1NCc2ccccc21")
4.1
>>> meas_value("O=C1c2ccccc2S(=O)(=O)N1Cc1ccc(Br)cc1")
4.3

Cited source: ChEMBL document CHEMBL3758171
